Tested on: Escherichia coli
test.method.notes: Minimal inhibitory concentration against Escherichia coli (Range is 25-50 uM)
Type: functional
Below: a set of entries, each annotated with reported MIC.
measured.parameter: MIC (µM)

1) Clc1cc2nc(C3CCNCC3)n(CCCCCN3Cc4ccccc4C3)c2cc1Cl | 50
2) O=C(Cn1c(C2CCNCC2)nc2cc(Cl)c(Cl)cc21)NNC(=O)Nc1ccccc1-c1ccccc1 | 50
3) Clc1cc2nc(C3CCNCC3)n(CCCn3c(C4CCNCC4)nc4cc(Cl)c(Cl)cc43)c2cc1Cl | 50
